# TARGET: T1, human Galectin-3 (human, UniProt P17931 2-250, limits assumed)
# T1 construct: also called Human GAL-3; hGal-3
# T1 sequence (P17931 2-250 limits assumed): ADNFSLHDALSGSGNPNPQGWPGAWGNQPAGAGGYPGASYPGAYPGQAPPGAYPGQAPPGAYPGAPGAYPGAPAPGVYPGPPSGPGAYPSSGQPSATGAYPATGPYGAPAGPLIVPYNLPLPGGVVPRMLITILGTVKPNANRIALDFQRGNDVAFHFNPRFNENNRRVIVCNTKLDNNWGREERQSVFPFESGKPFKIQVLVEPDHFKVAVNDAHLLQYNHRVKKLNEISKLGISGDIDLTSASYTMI
# PROTOCOL DESCRIPTION: Carterra LSA SPR epitope binning, antibody on chip, hGal-3 injected
ENDPOINT NAME: binding result

1220SBC1068-164 (antibody, IgG4, V domains shown) VH: EVKLLESGGGLVQPGGSLKLSCAASGFDFSRYWMSWVRQAPGKGLEWIGEISPDSSTINYTASLKDKFNISRDNAKNTLYLQMSKVRSEDTALYYCARPYYGYYWGQGTLVTVSE VL: DIVMTQSPSSLTVTAGEKVTMSCKSSQSLFNSGNQKNYLTWYQQKPGQPPKLLIYWAYTRESGVPDRFTGSGSGTDFTLTIHGVQAEDLAVYYCHNDYTSPFTFGSGTKLEMK :: binds
1104SBC1068-374 (antibody, IgG4, V domains shown) VH: QIQLVQSGPELKKPGETVKISCKASGYTFTNYGMNWVKQAPGKGLKWMGWINTYTGEPTYADDFKGRFAFSLETSASTAYLQINNLKNEDMATYFCARYAMDYWGQGTSVTVSS VL: QAVVTQESALTTSPGGTVILTCRSSTGAVTTSNYANWVQEKPDHLFTGLIGGTSNRAPGVPVRFSGSLIGDKAALTITGAQTEDDAMYFCALWYSTHYVFGGGTKVTVL :: binds
